Assign sensor-assay potency score (higher = more potent) to each entry below.
target: SMC5; experiment: pooled miR-30 sensor sort-seq; sequence = guide strand; conditions: shRNA; further: reference of the scale not given here

Returns the measured sensor-assay potency score (higher = more potent) for the input sequence. Input: "TTCTCTTTTTGTATATTCCTGA"
-0.0732

Please do the same for "TTGATTTCATCAACTACTCTGA" as well.
0.124

Please do the same for "TTCTGCAATAATCTCTGTCTAT" as well.
-1.01

Please do the same for "TTATCTTTCATATTGATCGTGA" as well.
0.464

Please do the same for "TAAATCTAAATGTCGCTTCCGT" as well.
0.849

Please do the same for "TTTATTGTCACGAACCTCTTTG" as well.
-0.041

Please do the same for "TATAAATCTGTTTTAATCGGGT" as well.
-0.0428

Please do the same for "TTCTATAACATCTTGCTTCTGT" as well.
0.581

----------
target: GALNT9; assay: pooled miR-30 sensor sort-seq; sequence = guide strand; settings: shRNA
VALUE_TYPE: sensor-assay potency score (higher = more potent)
Lab note: jot down the number only; don't add units.

Identify the measured sensor-assay potency score (higher = more potent) of "TGATGTGTGACTTAGGTCTTGG" for GALNT9.
0.117

Please do the same for "TTGCTGTTTCTCACCTCTCCGT" as well.
-0.669

Please do the same for "TTTCTGATCATCCACTTCTGCC" as well.
-1.06

Please do the same for "TTTGGACATCTCCACCTCCAGG" as well.
-1.41

Please do the same for "TTCGACATGGGGATGTTCCAGG" as well.
-0.845

Please do the same for "TTGTTGTAGGGCTTCCTGGTGC" as well.
0.157

Please do the same for "TTGTAGACCCTCATCTCCGGGT" as well.
-0.631

Please do the same for "TAGTAGTCAATGTCGTTGTTGT" as well.
0.0429

Please do the same for "TTTGTCGCTGTCCATGTCCTCC" as well.
-0.772

Please do the same for "TTACCAGACCACAAGGAGCTGC" as well.
-0.143

----------
biological target: FKBP10; experiment: pooled miR-30 sensor sort-seq; sequence = guide strand; conditions: shRNA
VALUE_TYPE: sensor-assay potency score (higher = more potent)
Lab note: jot down the number only; don't add units.

Returns the measured sensor-assay potency score (higher = more potent) for the input sequence. Input: "TAGCTGGTGTCGAAGAAGGTGC"
-0.841

Please do the same for "ATAGCTTGAATCAAACTTCTTG" as well.
0.371

Please do the same for "TCAAACAGCAGCACAGCACTGC" as well.
0.521

----------
molecular target: C14orf149; test: pooled miR-30 sensor sort-seq; sequence = guide strand; conditions: shRNA
Lab note: compare sensor-assay potency score (higher = more potent) against -0.5. Equal or greater, write fulfilled. Smaller, write not fulfilled.

Is reported sensor-assay potency score (higher = more potent) greater than or equal to -0.5 here: "TCTTCTATTATAAAGCTTGCTG"
fulfilled

Please do the same for "TTATAAAGCTTGCTGTACCCGT" as well.
fulfilled

Please do the same for "TTCCCTGTGAATACTGAGCCAG" as well.
not fulfilled

Please do the same for "TAAACTGAGCTTTCACTGCCTC" as well.
fulfilled

Please do the same for "TTCTATTATAAAGCTTGCTGTA" as well.
not fulfilled

Please do the same for "TATAAGCATCTTTTCCATCTGT" as well.
fulfilled

----------
Assign sensor-assay potency score (higher = more potent) to each entry below.
target: GAPDH; assay: pooled miR-30 sensor sort-seq; sequence = guide strand; details: shRNA

Identify the measured sensor-assay potency score (higher = more potent) of "TTGGCAGGTTTTTCTAGACGGC" for GAPDH.
-0.926

Please do the same for "TTGAGGTCAATGAAGGGGTCAT" as well.
-0.473

Please do the same for "TTGATGACAAGCTTCCCGTTCT" as well.
0.0762

----------
molecular target: TRIM50; assay: pooled miR-30 sensor sort-seq; sequence = guide strand; conditions: shRNA
VALUE_TYPE: sensor-assay potency score (higher = more potent)
Lab note: jot down the number only; don't add units.

Identify the measured sensor-assay potency score (higher = more potent) of "TGAACTTGTGGTGGTCCTCATT" for TRIM50.
-1.36

Please do the same for "TGGAACTTCCGGATGAACTTGT" as well.
-0.0502

Please do the same for "TTCGCCCTGCTCATAGTGCAGG" as well.
-1.35

Please do the same for "TCCAACTTGAGAGGCTCCGGGG" as well.
-1.47

Please do the same for "TTGGGCAGGGAGCTGCTGCCGT" as well.
-1.11

Please do the same for "TTCCGGATGAACTTGTGGTGGT" as well.
-0.035

----------
Assign sensor-assay potency score (higher = more potent) to each entry below.
molecular target: BVES; test: pooled miR-30 sensor sort-seq; sequence = guide strand; details: shRNA

Identify the measured sensor-assay potency score (higher = more potent) of "TTTTTCACCTTTGTGCATCTGA" for BVES.
0.533

Please do the same for "TAGTCTTCTGAACAAATCTGGA" as well.
-1.1

Please do the same for "TTGTGCATCTGAGTTGATCTAA" as well.
0.0688

Please do the same for "TTCTTCTATCGGTTTCATCTTG" as well.
-0.512

Please do the same for "TTAGTCTTCTGAACAAATCTGG" as well.
0.0292

Please do the same for "TTTCATACAAGAAAGGTTCTGA" as well.
0.905

Please do the same for "TCTTCTATCGGTTTCATCTTGG" as well.
0.0355

----------
target: LNPEP; test: pooled miR-30 sensor sort-seq; sequence = guide strand; conditions: shRNA
Lab note: compare sensor-assay potency score (higher = more potent) against -0.2. Equal or greater, write y. Smaller, write n.

Is reported sensor-assay potency score (higher = more potent) greater than or equal to -0.2 here: "TTGAATAATTTCTTCCTTCAGT"
y

Please do the same for "TTCTGTACAAGCTTATTCCAGT" as well.
y

Please do the same for "TTTCTCATTACTTTCATCTGTG" as well.
y

Please do the same for "TTCTCTTTGACAAAATCCCATG" as well.
n

Please do the same for "TTATAGATGAGGTCTGTCTGAA" as well.
y

Please do the same for "TTGAATAGATGCATAGCTGTGA" as well.
y

Please do the same for "TACAGAAACAGCAACCACGATG" as well.
n

Please do the same for "TAAATAACTACATACTGCCCAA" as well.
n

Please do the same for "TTTTGTTCTTCTCTGCTTCAGA" as well.
y

Please do the same for "TTTCTTGGCTTGAAACTGCTGA" as well.
y

----------
Assign sensor-assay potency score (higher = more potent) to each entry below.
target: CCDC105; experiment: pooled miR-30 sensor sort-seq; sequence = guide strand; details: shRNA
Lab note: jot down the number only; don't add units.

Identify the measured sensor-assay potency score (higher = more potent) of "TATCTGCAGCTGTTGCTCCCGG" for CCDC105.
-0.913

Please do the same for "TTGGACTCGACCAACAACCGCT" as well.
-0.0723

Please do the same for "TTGAGTAGGACCTCTGATTTTT" as well.
-1.1

Please do the same for "TATATTTCGTACACCGGAGGAT" as well.
0.16

Please do the same for "TTCAGCTCCAAGGTCTCGCTCG" as well.
-0.194

Please do the same for "TAATCTTTCCTTCAGCTCCAAG" as well.
-0.875

Please do the same for "TTCGCTGAGCCTGTGGTCGGTG" as well.
-0.476

----------
target: ADCYAP1; experiment: pooled miR-30 sensor sort-seq; sequence = guide strand; settings: shRNA
Lab note: compare sensor-assay potency score (higher = more potent) against -0.5. Equal or greater, write criterion met. Smaller, write criterion not met.

Is reported sensor-assay potency score (higher = more potent) greater than or equal to -0.5 here: "TGGGCGACATCTCTTCTCCCGG"
criterion not met

Please do the same for "TGTTTGGATAGAACACACGAGC" as well.
criterion not met

Please do the same for "TTAACCCTTTGTTTATACCTCT" as well.
criterion met

Please do the same for "TATCCCATAGACCAGCAGGGCC" as well.
criterion not met

Please do the same for "TGTCCGTGAAGATCCCGTCCGA" as well.
criterion met

Please do the same for "TAGCGGCTGTAGCTGTCCGTGA" as well.
criterion not met

Please do the same for "TAACCCTTTGTTTATACCTCTT" as well.
criterion not met

Please do the same for "TTGTTTCCGGTAGCGGCTGTAG" as well.
criterion not met

Please do the same for "TAGGCCTCGTTAAGGATCCCGT" as well.
criterion not met

Please do the same for "TTCCGGTAGCGGCTGTAGCTGT" as well.
criterion not met

Please do the same for "TTGTTTATACCTCTTCCCTAGG" as well.
criterion not met

Please do the same for "TACGCCTCTTCCTCTGGCCTGA" as well.
criterion not met

Please do the same for "TAGCTGTCCGTGAAGATCCCGT" as well.
criterion met

Please do the same for "ATTTGTTTCCGGTAGCGGCTGT" as well.
criterion met

Please do the same for "TTATCCCATAGACCAGCAGGGC" as well.
criterion not met

Please do the same for "TTTGTTTCCGGTAGCGGCTGTA" as well.
criterion met

Please do the same for "TTTGTTTATACCTCTTCCCTAG" as well.
criterion met

Attribution: the OligoGym collection
